- Tested on: SAOS-2
- experimental details: Antiproliferative activity against human SAOS-2 cells assessed as […] cell proliferation at 10 uM incubated for 48 hrs by WST-1 assay relative to control
- Type: functional
observed property: Activity (%)
Reply numerically in %, unit not repeated.

In the examples that follow, each entry is paired with its recorded Activity.
input smiles	target desc	observed property	unit tag	readout number
CC(C)S(=O)(=O)c1ccc(-c2cnc3[nH]c(C(=O)N4CCc5ccccc5C4)cc3c2)cc1	SAOS-2	Activity	%	71
CCN1CCN(C2CCN(Cc3c[nH]c4ncc(-c5ccc(S(=O)(=O)C(C)C)cc5)cc34)CC2)CC1	SAOS-2	Activity	%	87

Consider the record given below.
Prompt: Given CCN1CCN(C(=O)c2cc(-c3ccc(S(C)(=O)=O)cc3)[nH]n2)CC1 , state its recorded Activity.
Completion: 102
